system: U251 CNS; test: NCI tumour cell line growth inhibition, 48 h
Documented TGI across a set of compounds

Compound: C1=CN2C[n+]3cccc(OCc4ccccc4)c3N=C2C(OCc2ccccc2)=C1
Tested on: U251 CNS
TGI: > 100 µM
//
Compound: Cn1c(=O)n2n(c1=O)Cc1cccc3cccc(c13)C2
Tested on: U251 CNS
TGI: > 100 µM
//
Compound: Cc1nc2c(o1)C(=O)c1ccccc1C2=NC1CCCCC1N (centres undefined)
Tested on: U251 CNS
TGI: 1.32 µM
//
Compound: Cc1cc(S(N)(=O)=O)c(SCc2nc(N)nc(N(C)C)n2)cc1Cl
Tested on: U251 CNS
TGI: > 10 µM
//
Compound: CC(=O)Oc1c(C)n(CCCl)ccc1=O
Tested on: U251 CNS
TGI: > 100 µM
//
Compound: O=C1c2cc3c(cc2-c2c1c1cc(Cl)c(Cl)cc1c(=O)n2CCCn1ccnc1)OCO3
Tested on: U251 CNS
TGI: 11.6 µM
//
Compound: CC(C)(C)c1cc(C(=O)/C=C/c2ccc(O)c(O)c2O)cc(C(C)(C)C)c1O
Tested on: U251 CNS
TGI: 12.3 µM
//
Compound: CC(=O)Oc1ccccc1[C@H]1CC(=O)C[C@H](c2ccccc2OC(C)=O)C12C(=O)c1ccccc1C2=O
Tested on: U251 CNS
TGI: > 100 µM
//
Compound: COc1cc(-c2cc(C(=O)N3CCN(C(=O)c4ccccc4NCc4ccco4)CC3)nc3cc(-c4ccccc4)nn23)cc(OC)c1OC
Tested on: U251 CNS
TGI: > 100 µM
//
Compound: Cc1ccc(S(=O)(=O)N/N=C/C(Br)=C(/Br)C(=O)O)cc1
Tested on: U251 CNS
TGI: 18.8 µM
//
Compound: CC(=O)N1c2ccccc2C(C)(C)OC1C(Cl)(Cl)Cl (centres undefined)
Tested on: U251 CNS
TGI: > 100 µM
//
Compound: COc1cc(C2C(Cl)C(=O)N2n2cnc3ccccc3c2=O)cc(OC)c1OC (centres undefined)
Tested on: U251 CNS
TGI: > 100 µM
//
Compound: COc1ncnc2c1cnn2Cc1cn(COCC(O)CO)nn1 (centres undefined)
Tested on: U251 CNS
TGI: > 100 µM
//
Compound: CCCCCCC(=O)C/C(CCC(=O)N(Cc1ccccc1)Cc1ccccc1)=N\Nc1ccc([N+](=O)[O-])cc1[N+](=O)[O-]
Tested on: U251 CNS
TGI: > 100 µM
